tested on: DMS 114 small cell lung; assay: NCI tumour cell line growth inhibition, 48 h
measurement-type: TGI

Requested field: TGI. Item: C[Si](C)(C)C(CCCCSc1ccccc1)(Sc1ccccc1)Sc1ccccc1
> 100 µM

Requested field: TGI. Item: O=C(C#Cc1ccccc1)N1c2ccccc2CC1c1c[nH]c2ccccc12 (configuration not stated)
28.8 µM

Requested field: TGI. Item: N/C(=N\NS(=O)(=O)c1ccccc1)Oc1ccc(Br)cc1Br
> 100 µM

Requested field: TGI. Item: CNc1ccc2ncccc2c1[N+](=O)[O-]
> 100 µM

Requested field: TGI. Item: COC(=O)CC(C(C(=O)OCc1ccccc1)C(C)O)N1C(=O)OC(c2ccccc2)C1c1ccccc1 (configuration not stated)
> 100 µM

Requested field: TGI. Item: CCOc1ccc(/C(C=O)=C(\Cl)c2ccc(OC)cc2)cc1
> 100 µM

Requested field: TGI. Item: N#C/C(=C\c1cccc(O)c1O)C(N)=O
> 100 µM

---

Would you mind telling me the reported TGI of each entry?
tested on: EKVX NSCLC; assay: NCI tumour cell line growth inhibition, 48 h

Requested field: TGI. Item: CC12CCCCC1=[N+]([O-])C(C)(C)N2O (stereo unspecified)
> 100 µM

Requested field: TGI. Item: O=C1CC(C(OCc2ccccc2)C(OCc2ccccc2)C(COCc2ccccc2)OCc2ccccc2)CC(=O)N1 (stereo unspecified)
> 100 µM

Requested field: TGI. Item: COc1ccc2c(c1)OCCc1cn[nH]c1-2
12.3 µM

Requested field: TGI. Item: Cc1ccc(-c2nnc(CCCCCCCCc3nnc(-c4ccc(C)cc4O)n3N)n2N)c(O)c1
> 100 µM

Requested field: TGI. Item: N#C/C(=C\c1ccc([N+](=O)[O-])s1)c1nc2cc(Cl)ccc2s1
5.82 µM

Requested field: TGI. Item: CCN(CC)CCCNC(=O)c1cc2cc(NC(=O)c3cc4cc([N+](=O)[O-])ccc4[nH]3)ccc2[nH]1
> 100 µM

Requested field: TGI. Item: O=C1Nc2cc([N+](=O)[O-])c(Br)cc2C1=O
47.4 µM

Requested field: TGI. Item: CC1(C)C2CCC3(OCCO3)C1C(O)C2 (stereo unspecified)
> 100 µM

Requested field: TGI. Item: COC(=O)C12CC(NC(=O)c3csc([C@@H](C[C@H](C(C)C)N(C)C(=O)[C@@H](NC(=O)[C@H]4CCCCN4C)C4CC4)OC(C)=O)n3)(C1)C2
> 16.7 µM

Requested field: TGI. Item: CC(=O)NC(CCCCN)C(=O)NCc1ccccc1 (stereo unspecified)
> 100 µM

Requested field: TGI. Item: CSc1ncc(Br)c(Sc2nc(N)nc3nc[nH]c23)n1
55.1 µM

Requested field: TGI. Item: CN(C)c1nc(=NCc2ccco2)ss1
64.3 µM

Requested field: TGI. Item: Cc1ccnc2nc(N)ccc12
> 100 µM

Requested field: TGI. Item: COC(=O)CCC12CCC(=O)C1[C@@H](C(=O)OC)C[C@H]2C(=O)OC (stereo partly specified)
> 100 µM

Requested field: TGI. Item: COc1ccc2c(c1OC)-c1c(c3ccc([N+](=O)[O-])cc3c(=O)n1CCCBr)C2=O
> 100 µM

Requested field: TGI. Item: NC(=O)[C@@H](CC1CC1)[C@@H](CCC(F)(F)F)C(=O)N[C@H]1N=C(c2ccccc2)c2cccc(F)c2NC1=O
> 100 µM

Requested field: TGI. Item: Clc1cccc(N2CCN(CCCN3CCc4c([nH]c5ccccc45)C3c3cccnc3)CC2)c1 (stereo unspecified)
35.1 µM

Requested field: TGI. Item: N/C(=N\NS(=O)(=O)c1ccccc1)Oc1ccc(Br)cc1Br
> 100 µM

Requested field: TGI. Item: COC(=O)C(CCC(=O)CCl)N1C(=O)c2ccccc2C1=O (stereo unspecified)
35.3 µM

Requested field: TGI. Item: Cc1ccc(Oc2ccccc2N)cc1
> 100 µM

Requested field: TGI. Item: CCCCCCCCOC(=O)c1c(C)[nH]c(/C=C2\N=C(c3ccc[nH]3)C=C2OC)c1C
9.15 µM

---

system: DLD-1 colon; assay: NCI tumour cell line growth inhibition, 48 h
Would you mind telling me the reported TGI of each entry?

Requested field: TGI. Item: CC(C)(C)C(=O)OCC1OC(N=[N+]=[N-])C(OC(=O)C(C)(C)C)C(OC(=O)C(C)(C)C)C1OC(=O)C(C)(C)C (stereo not drawn)
> 100 µM

Requested field: TGI. Item: O=C1OC(c2ccccc2)=N/C1=C\c1ccc(Oc2ccc(Cl)c(Cl)c2)cc1
> 100 µM

Requested field: TGI. Item: COC(=O)CCC12CCC(=O)C1[C@@H](C(=O)OC)C[C@H]2C(=O)OC (stereo partly drawn)
> 100 µM

---

Would you mind telling me the reported TGI of each entry?
system: LOX IMVI melanoma; assay: NCI tumour cell line growth inhibition, 48 h
Numeric only. Scale: µM

Requested field: TGI. Item: CN(C)c1nc(=NCc2ccco2)ss1
38.4

Requested field: TGI. Item: C=C1C(=O)O[C@H]2[C@H]1CC/C(COC(=O)NCc1ccc(OC)cc1)=C\CC[C@@]1(C)O[C@@H]21
1.47

Requested field: TGI. Item: CO[C@H]1O[C@@H]2CO[C@@H](c3ccccc3)O[C@H]2[C@@H]2C/C=C\CCC[C@@]12O
32.4

Requested field: TGI. Item: Clc1cccc(N2CCN(CCCN3CCc4c([nH]c5ccccc45)C3c3cccnc3)CC2)c1 (centres undefined)
37.9

---

system: HOP-62 NSCLC; test: NCI tumour cell line growth inhibition, 48 h; in the data active = GI50 below about 0.43 µM; inactive = the rest
Form entry, call: pick from active, inactive

Hi team, can someone confirm the assay call for COc1ccc2c(c1OC)-c1c(c3ccc([N+](=O)[O-])cc3c(=O)n1CCCBr)C2=O ?
inactive

Hi team, can someone confirm the assay call for CC(C)(O)/C=C/C(=O)[C@](C)(O)[C@H]1[C@H](O)C[C@@]2(C)[C@@H]3CC=C4[C@@H](C[C@H](O)C(=O)C4(C)C)[C@]3(C)C(=O)C[C@]12C ?
active

Hi team, can someone confirm the assay call for Cc1ccc2nc(-c3ccc(OCC(=O)N=Nc4c(O)[nH]c5ccccc45)cc3)[nH]c2c1 ?
inactive

Hi team, can someone confirm the assay call for CCN1CCN(c2cc(C)nc(N(CCCNc3ccnc4cc(Cl)ccc34)Cc3ccc4c(c3)OCO4)n2)CC1 ?
inactive

Hi team, can someone confirm the assay call for COC(=O)C12CC(NC(=O)c3csc([C@@H](C[C@H](C(C)C)N(C)C(=O)[C@@H](NC(=O)[C@H]4CCCCN4C)C4CC4)OC(C)=O)n3)(C1)C2 ?
active

Hi team, can someone confirm the assay call for CN(C)c1ccc(/C=C2\N=C(c3ccccc3)N(c3cc(C(F)(F)F)ccc3Cl)C2=O)cc1 ?
inactive

Hi team, can someone confirm the assay call for Cc1ncc(C(=O)Nc2ccc(CN3CCN(C)CC3)c(C(F)(F)F)c2)cc1C#Cc1ccc(N)nc1 ?
active

---

system: SNB-78 CNS; test: NCI tumour cell line growth inhibition, 48 h
measurement-type: TGI

Requested field: TGI. Item: CCCc1c(C(=O)OCC)[nH]c(-c2ccc(-c3[nH]c(C(=O)OCC)c(CCC)c3C(=O)OCC)s2)c1C(=O)OCC
> 100 µM

Requested field: TGI. Item: Clc1cccc(N2CCN(CCCN3CCc4c([nH]c5ccccc45)C3c3cccnc3)CC2)c1 (centres undefined)
9.39 µM

Requested field: TGI. Item: O=C1C(=O)N(c2ccc(Cl)cc2)C(=O)C(=O)C1c1nc2ccccc2s1
> 100 µM

Requested field: TGI. Item: Cc1ccc(Sc2ccccc2[N+](=O)[O-])cc1
95.4 µM

Requested field: TGI. Item: CC1(C)C2CCC3(OCCO3)C1C(O)C2 (centres undefined)
> 100 µM

Requested field: TGI. Item: CCC(COC(=O)CC[C@@H](NC(=O)C(C)NC(=O)C(C)OC1C(O)C(CO)OC(OCc2ccccc2)C1NC(C)=O)C(N)=O)NC1c2ccccc2Nc2cccc([N+](=O)[O-])c21 (some centres undefined)
> 100 µM

Requested field: TGI. Item: CSc1nc(NC2OC(COC(C)=O)C(OC(C)=O)C(OC(C)=O)C2OC(C)=O)c(N=C(C)C(C)=O)c(=O)[nH]1 (centres undefined)
> 100 µM

Requested field: TGI. Item: COC(=O)CCC12CCC(=O)C1[C@@H](C(=O)OC)C[C@H]2C(=O)OC (some centres undefined)
> 100 µM

Requested field: TGI. Item: CN(C)c1nc(=NCc2ccco2)ss1
> 100 µM

Requested field: TGI. Item: C#CCNC(=O)NCCCCC(NC(=O)OCc1ccccc1)C(=O)OCc1ccccc1 (centres undefined)
> 100 µM

Requested field: TGI. Item: CC(=O)NNc1nc(C)c(C(=O)NNC(=O)C(=O)Nc2cccc(C(C)=O)c2)s1
> 100 µM

Requested field: TGI. Item: N#C/C(=C\c1cccc(O)c1O)C(N)=O
> 100 µM

Requested field: TGI. Item: O=C1C[C@@H]2[C@@H](CCC23CC3)N1
> 100 µM

Requested field: TGI. Item: COC(=O)C1=C(CS(=O)c2ccc([N+](=O)[O-])cc2[N+](=O)[O-])C2C=CC1C2 (centres undefined)
> 100 µM

Requested field: TGI. Item: C=C1CC2CC[C@@]34CC5O[C@@H]6C(O[C@H]7CC[C@H](CC(=O)OC8C(C)C9OC%10C[C@]%11(C[C@@H]%12O[C@]%13(CC(C)[C@@H]%14O[C@H](C(O)CC(O)CO)C[C@@H]%14O%13)CC(C)[C@@H]%12O%11)OC%10CC9O[C@H]8C[C@H]8OC(CC[C@@H]1O2)C[C@@H](C)C8=C)OC7[C@@H]6O3)[C@H]5O4 (some centres undefined)
2.55 µM

Requested field: TGI. Item: COc1ccc2c(c1)CC[C@@H]1C2CC[C@](C)(C#N)C1CC#N (some centres undefined)
> 100 µM

Requested field: TGI. Item: O=C1Nc2cc([N+](=O)[O-])c(Br)cc2C1=O
50.1 µM

Requested field: TGI. Item: C#CCNC(=O)ON1C(=O)CCC1=O
> 100 µM

Requested field: TGI. Item: CCSCN(C)c1nc(N(C)C)nc(N(C)C)n1
> 100 µM
